# composite z-score per entry
measurement.description: small-molecule microarray binders of probe aLefty2, primary screen, biochemical, biotinylated probe, 635/667 nm fluorescence (AID 1094);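 also: score merges spot fluorescence near 667 nm with spot signal-to-noise ratio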
assay.context: higher = more signal
Number only, no unit.

Look over these answered cases.
CC(=O)NCCCC[C@@H]1NC(=O)[C@H]2C[C@@H](C(=O)NCCCCCCNC(=O)CS)[C@@H](c3ccc(O)cc3)N2C1=O = 0.0283
COC(=O)[C@@]1(Cc2ccc(F)cc2)[C@H]2c3cc(C(=O)N4CCCC4)n(Cc4ccc(S(C)(=O)=O)cc4)c3C[C@H]2CN1C(=O)c1ccccc1 = 0.267
COCCOC(=O)N1C(=O)[C@@]2(c3ccccc31)[C@H](c1ccccc1OCCO)N1[C@H](c3ccccc3)[C@H](c3ccccc3)OC(=O)[C@H]1[C@@H]2C(=O)N1CCN(c2ncccn2)CC1 = -0.0529

[ask] If you can, please state the reported composite z-score value of O=C1C2C=CC(C(O)c3cccc4ccccc34)N(Nc3ccccc3F)C2C(=O)N1c1ccccc1 (centres undefined) .
[reply] 0.13
